target: SHP2 (Homo sapiens (Human)); assay: SHP2 Allosteric Inhibition Assay; type: biochemical; conditions: 0.5 nM SHP2 activated with 0.5 μM peptide IRS1_pY1172(dPEG8)pY1222, surrogate substrate DiFMUP, fluorescence
Sequence (Q06124 whole entry): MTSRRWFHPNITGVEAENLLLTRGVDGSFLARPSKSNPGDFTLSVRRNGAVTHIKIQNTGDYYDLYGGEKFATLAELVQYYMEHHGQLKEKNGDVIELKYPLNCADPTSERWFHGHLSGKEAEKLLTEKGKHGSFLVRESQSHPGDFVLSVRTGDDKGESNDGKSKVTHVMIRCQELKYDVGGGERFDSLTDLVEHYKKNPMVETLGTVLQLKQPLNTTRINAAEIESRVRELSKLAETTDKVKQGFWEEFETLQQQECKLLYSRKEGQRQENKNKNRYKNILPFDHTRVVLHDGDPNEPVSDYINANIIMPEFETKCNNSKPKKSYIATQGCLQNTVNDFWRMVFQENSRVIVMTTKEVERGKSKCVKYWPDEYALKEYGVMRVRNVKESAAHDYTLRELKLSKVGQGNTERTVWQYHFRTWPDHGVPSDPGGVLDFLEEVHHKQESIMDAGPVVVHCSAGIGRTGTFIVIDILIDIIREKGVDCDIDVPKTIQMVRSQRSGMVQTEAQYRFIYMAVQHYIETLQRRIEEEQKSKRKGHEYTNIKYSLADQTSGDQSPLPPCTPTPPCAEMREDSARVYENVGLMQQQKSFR
reported.property: IC50 (nM)
Please give a number only; it is taken to be in nM.

Known results for molecules:
| structure.as.smiles | unit.of.measure | IC50 |
| --- | --- | --- |
| Nc1nc(N2CCC3(CC2)COC[C@H]3N)cnc1Sc1cccnc1Cl | nM | 10 |
| C[C@@H]1C[C@@H](N)C2(CCN(c3cnc(Sc4cccnc4C(F)(F)F)c(N)n3)CC2)C1 | nM | 7 |

// next item, IC50 requested
Enquiry: For the molecule shown here, `CO[C@H]1C[C@@H](N)C2(CCN(c3cnc(Sc4ccnc(N)c4Cl)c(N)n3)CC2)C1` , give the reported IC50.
Return: 10
